# assaySystem: GluN2B glutamate receptors expressed in mammalian cells (Homo sapiens (Human), UniProt Q05586+Q13224)
# Sequence (Q13224 27-1484, other chains not shown): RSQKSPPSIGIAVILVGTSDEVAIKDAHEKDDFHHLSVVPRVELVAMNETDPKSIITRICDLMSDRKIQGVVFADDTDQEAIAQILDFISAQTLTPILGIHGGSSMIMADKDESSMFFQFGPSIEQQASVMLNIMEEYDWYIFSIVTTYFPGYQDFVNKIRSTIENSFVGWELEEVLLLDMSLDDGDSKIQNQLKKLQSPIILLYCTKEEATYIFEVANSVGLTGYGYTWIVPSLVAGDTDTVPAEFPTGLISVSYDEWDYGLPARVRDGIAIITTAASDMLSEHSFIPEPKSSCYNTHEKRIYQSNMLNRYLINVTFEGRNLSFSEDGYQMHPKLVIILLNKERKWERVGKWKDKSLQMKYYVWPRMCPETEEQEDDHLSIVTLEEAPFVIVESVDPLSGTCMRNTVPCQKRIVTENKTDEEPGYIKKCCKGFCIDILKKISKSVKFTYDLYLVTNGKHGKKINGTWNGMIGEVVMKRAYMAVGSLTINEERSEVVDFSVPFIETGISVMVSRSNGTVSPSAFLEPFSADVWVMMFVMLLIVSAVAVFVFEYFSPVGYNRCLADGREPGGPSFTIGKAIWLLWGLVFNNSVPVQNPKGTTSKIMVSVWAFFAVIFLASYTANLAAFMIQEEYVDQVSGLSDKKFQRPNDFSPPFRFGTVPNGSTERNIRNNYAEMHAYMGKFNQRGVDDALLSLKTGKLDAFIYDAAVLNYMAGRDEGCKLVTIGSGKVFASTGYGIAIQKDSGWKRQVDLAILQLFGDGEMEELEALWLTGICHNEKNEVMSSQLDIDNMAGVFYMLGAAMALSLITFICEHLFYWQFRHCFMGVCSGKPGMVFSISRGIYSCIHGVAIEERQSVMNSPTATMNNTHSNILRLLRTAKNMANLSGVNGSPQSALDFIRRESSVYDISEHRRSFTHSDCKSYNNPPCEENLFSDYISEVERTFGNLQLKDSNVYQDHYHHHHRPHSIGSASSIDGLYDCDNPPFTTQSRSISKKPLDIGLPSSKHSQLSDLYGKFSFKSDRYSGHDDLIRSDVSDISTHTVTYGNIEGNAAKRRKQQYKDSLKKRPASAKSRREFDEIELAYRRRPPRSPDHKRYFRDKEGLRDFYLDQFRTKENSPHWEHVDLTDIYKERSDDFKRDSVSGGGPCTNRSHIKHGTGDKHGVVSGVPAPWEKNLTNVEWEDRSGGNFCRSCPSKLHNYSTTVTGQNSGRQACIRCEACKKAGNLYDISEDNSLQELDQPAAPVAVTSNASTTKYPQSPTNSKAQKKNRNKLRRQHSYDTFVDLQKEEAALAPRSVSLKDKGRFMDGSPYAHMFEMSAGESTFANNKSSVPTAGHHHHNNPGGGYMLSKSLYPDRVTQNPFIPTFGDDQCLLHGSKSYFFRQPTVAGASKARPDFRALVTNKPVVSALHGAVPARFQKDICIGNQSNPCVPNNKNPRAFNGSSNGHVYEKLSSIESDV
# methodSummary: Whole-cell patch clamp of mammalian cells (Ionworks Barracuda), positive allosteric modulation, GluN2B
# Format: cell-based
# cond: peak current amplitude; co-application with EC20 L-glutamate and 30 μM glycine; read-out: GluN2B PCA EC50
quantity: EC50

[
  {
    "compound": "CC[C@]1(O)CC[C@@]2(C)C(=CC[C@H]3[C@@H]4CC[C@H]([C@H](C)[C@H](O)CCC(C)C)[C@@]4(C)CC[C@@H]32)C1 [Compound 52]",
    "quantity": "EC50",
    "observedValue": "> 1000 nM"
  },
  {
    "compound": "CC[C@]1(O)CC[C@H]2C(=CC[C@@H]3[C@@H]2CC[C@]2(C)[C@@H]([C@H](C)[C@H](O)CCC(C)C)CC[C@@H]32)C1 [Compound 3]",
    "quantity": "EC50",
    "observedValue": "> 1000 nM"
  },
  {
    "compound": "CC[C@]1(O)CC[C@H]2[C@@H](CC[C@@H]3[C@@H]2CC[C@]2(C)[C@@H]([C@H](C)[C@@H](O)CCC(C)C)CC[C@@H]32)C1 [Compound 28]",
    "quantity": "EC50",
    "observedValue": "> 1000 nM"
  }
]
